Taken from patent EP2616456B1.

- System: HeLa cells
- protocol_description: Cell viability (CellTiter-Glo) and cell death, HeLa
- Assay type: cell-based
- particulars: Homo sapiens; compound concentration reducing HeLa cell viability by 50%
metric: IC50 (µM)
Write the value in µM as a bare number.

Prompt: Report IC50 for O=C(NC1CS(=O)(=O)CC1Cl)c1cccc(C(F)(F)F)c1 (stereo not drawn) please.
Response: 17

Prompt: Report IC50 for `NC(=O)c1c(NC(NC(=O)c2cccc(F)c2)(C(F)(F)F)C(F)(F)F)sc2c1CCC2` please.
Response: 31

Prompt: Report IC50 for `NC(=O)c1c(NC(NC(=O)c2ccccc2F)(C(F)(F)F)C(F)(F)F)sc2c1CCCC2` please.
Response: 38
